src = patent US20080262228A1

Test: in vitro
Settings: both, human, microsomes
Protocol: Experiments were conducted to determine the intrinsic clearance by substrate depletion for COMPOUND I metabolism in liver microsomes in the presence of NADPH and UDPGA. […] The samples were then reconstituted in 200 μL of 20% methanol in water and analyzed by LC/MS. […] Peak area ratios for COMPOUND I against the internal standard were used to express the % remaining at given time points. […] Metabolic half-life (t1/2) was calculated by dividing 0.693 by the intrinsic clearance.
Quantity: half-life at 1 μM (min)
Note: unit min is implicit; provide only the numeric part.

Exercise: Which half-life at 1 μM value belongs to COc1cc(N2CCN(C3CCN(c4ccc(F)c5cccnc45)CC3)CC2)c2ncccc2c1 [COMPOUND I] ?
Key: 7

###

Assay: in vitro
Details: male, monkey, microsomes
Quantity: microsomal CLint at 1 μM (µL/min/mg)
Note: unit µL/min/mg is implicit; provide only the numeric part.

Exercise: Which microsomal CLint at 1 μM value belongs to `COc1cc(N2CCN(C3CCN(c4ccc(F)c5cccnc45)CC3)CC2)c2ncccc2c1` ?
Key: 312

###

Assay: In vivo metabolism of [14C]COMPOUND I in Sprague-Dawley rats, single oral 5 mg/kg dose
Set-up: species or system rat
Settings: Sprague-Dawley, rat; male rats, 6 hr, 5 mg/kg oral; mean brain radioactivity x percentage of COMPOUND I in pooled sample; read-out: Brain COMPOUND I Concentrations
Quantity: concentration at 6 hr (ng/g)
Note: unit ng/g is implicit; provide only the numeric part.

Exercise: Which concentration at 6 hr value belongs to COc1cc(N2CCN(C3CCN(c4ccc(F)c5cccnc45)CC3)CC2)c2ncccc2c1 [COMPOUND I] ?
Key: 10

###

Test: In vivo metabolism of [14C]COMPOUND I in Sprague-Dawley rats, single oral 5 mg/kg dose
Parameters: species or system rat
Conditions: female, Sprague-Dawley, rat, brain and plasma, po, 5 mg/kg; read-out: Brain/Plasma COMPOUND I Ratio
Quantity: Kp at 3 h
Reply with the value as a number alone.

Exercise: Which Kp at 3 h value belongs to `COc1cc(N2CCN(C3CCN(c4ccc(F)c5cccnc45)CC3)CC2)c2ncccc2c1` ?
Key: 0.58

###

Assay: Metabolite profiling in liver microsomes and S9
Type: in vitro ADME, rat, dog, monkey, human
Settings: liver microsomes and S9, 10 μM COMPOUND I, 30 min; species letters not defined
Structures can show the parent of a compound that is named as a salt.
Quantity: Species (in which the metabolite was characterized)

{"Molecule": "COC1=CC(=O)c2ncccc2C1=O [Metabolite M1, 6-Methoxy-quinoline-5,8-dione]", "Observed Value": "R, D, M, H"}
{"Molecule": "COc1cc(N2CCN(C3CCN(c4ccc(OC5OC(C(=O)O)C(O)C(O)C5O)c5cccnc45)CC3)CC2)c2ncccc2c1 (stereo not shown) [Metabolite M5, Hydroxy desfluoro COMPOUND I glucuonide]", "Observed Value": "R, D, M, H"}
{"Molecule": "COc1cc(N2CCN(C3CCN(c4ccc(F)c5cccnc45)CC3)CC2)c2ncccc2c1", "Observed Value": "R, D, M, H"}
{"Molecule": "O=C1C=C(N2CCN(C3CCN(c4ccc(F)c5cccnc45)CC3)CC2)c2ncccc2C1=O [Metabolite M23, Desmethyl COMPOUND I quinone]", "Observed Value": "R, D, M, H"}
{"Molecule": "COc1cc(N2CCN(C3CCN(c4ccc(O)c5cccnc45)CC3)CC2)c2ncccc2c1 [Metabolite M18, Hydroxy desfluoro COMPOUND I]", "Observed Value": "R, D, M, H"}

Exercise: Which Species (in which the metabolite was characterized) value belongs to Oc1cc(N2CCN(C3CCN(c4ccc(F)c5cccnc45)CC3)CC2)c2ncccc2c1 [Metabolite M21, trihydrochloride] ?
Key: R, D, M, H
